- Tested on: bevacizumab
- assayText: Viscosity reduction of highly concentrated bevacizumab solution (cone/plate rheometer)
- Assay type: physicochemical
- testSettings: bevacizumab 220 mg/ml, 150 mM agent, pH 6.2±0.2 (Table IV)
Structures can show the parent of a compound that is named as a salt.
Listed below: % viscosity reduction relative to the “protein alone” control values for each entry.
measuredParameter: % viscosity reduction relative to the “protein alone” control (%)

| compound | readoutUnit | valueReported |
| --- | --- | --- |
| Cl.N=C(N)NCCC[C@H](N)C(=O)O [Arg, L-arginine hydrochloride salt] | % | 46 |
| Nc1ccn([C@H]2C[C@H](O)[C@@H](CO)O2)c(=O)n1 [Deoxycyt, 2′-Deoxycytidine] | % | 51 |
| Nc1ncnc2c1ncn2[C@@H]1O[C@H](COP(=O)(O)OP(=O)(O)OP(=O)(O)O)C(O)C1O (stereo partly drawn) [ATP, Sodium salt of adenosine 5′-triphosphate] | % | −14 |
| O=c1ccn([C@@H]2O[C@H](CO)[C@@H](O)[C@H]2O)c(=O)[nH]1 [Urid, Uridine] | % | 64 |
| Nc1ccn([C@@H]2O[C@H](CO)[C@@H](O)[C@H]2O)c(=O)n1 [Cyt, Cytidine] | % | 43 |
| [Cl-].[Na+] [NaCl, Sodium chloride] | % | 24 |

Reference for the values: patent US9457089B2
